Where do the numbers come from? From patent US20240417405A1.

test system: MOLM14 cells; test: Proliferation assay, spheroid-like growth, MOLM14 (MLL-AF9 rearranged); assay type: cell-based, human; conditions: Homo sapiens, MOLM-14, 192 h, 8 days, confluence as measure of spheroid size, read-out: spheroid assay_OneTime MOLM14 IC50
Quantity Measured: IC50 (nM)

{"columns": ["Compound", "Quantity Measured", "Readout Number"],
 "data": [
  ["Fc1ccc(Oc2nncnc2N2CCC3(C2)CN(C(C2CCN(CC4COC4)CC2)C24CC(C2)C4)C3)c(-c2nnccc2C2CC2)c1 (stereo not shown) [Compound 340]", "IC50", 170],
  ["CC(C)[C@H]([C@H]1C[C@@H](NC(=O)CC#N)C1)N1CC2(CCN(c3ncnnc3Oc3ccc(F)cc3-c3cncnc3C3CC3)C2)C1 (single isomer, unassigned) [Compound 298]", "IC50", 6],
  ["CC(C)[C@@H]([C@H]1C[C@H](N2C[C@H]3COC[C@H]3C2)C1)N1CC2(CCN(c3ncnnc3Oc3ccc(F)cc3-c3nnccc3C3CC3)C2)C1 (single isomer, unassigned) [Compound 259]", "IC50", 94],
  ["CC(=O)N[C@H]1C[C@@H](C(C(C)C)N2CC3(CCN(c4ncnnc4Oc4ccc(F)cc4-c4ncncc4C4CC4)C3)C2)C1 (stereo partly shown) [Compound 179]", "IC50", 73],
  ["CC(C)[C@@H]([C@H]1C[C@]2(COC(=O)N2)C1)N1CC2(CCN(c3ncnnc3Oc3ccc(F)cc3-c3cnncc3C3CC3)C2)C1 (single isomer, unassigned) [Compound 323]", "IC50", 53]
]}

[I] CC(C)[C@@H]([C@H]1C[C@H](N2CC3(CCO3)C2)C1)N1CC2(CCN(c3ncnnc3Oc3ccc(F)cc3-c3cnncc3C3CC3)C2)C1 (single isomer, unassigned) [Compound 103]
[II] CC(=O)N1CC2(CCN([C@H]3C[C@@H]([C@H](C(C)C)N4CC5(CCN(c6ncnnc6Oc6ccc(F)cc6-c6cnc(C)nc6C6CC6)C5)C4)C3)C2)C1 [Compound 381]
Query: Which of the two gives a bigger number for IC50: I or II ? Record your answer as the label of the chosen record.
Reply: I

###

biological target: menin/MLL (terbium chelate-labeled menin, FITC-MBM1 peptide) (Homo sapiens, UniProt O00255, T541A); construct: Menin (a.a 1-610-6xhis tag); assay: Menin/MLL homogenous time-resolved fluorescence (HTRF) assay; settings: 30 min incubation
Sequence (O00255 with tags, fused parts or gaps T541A): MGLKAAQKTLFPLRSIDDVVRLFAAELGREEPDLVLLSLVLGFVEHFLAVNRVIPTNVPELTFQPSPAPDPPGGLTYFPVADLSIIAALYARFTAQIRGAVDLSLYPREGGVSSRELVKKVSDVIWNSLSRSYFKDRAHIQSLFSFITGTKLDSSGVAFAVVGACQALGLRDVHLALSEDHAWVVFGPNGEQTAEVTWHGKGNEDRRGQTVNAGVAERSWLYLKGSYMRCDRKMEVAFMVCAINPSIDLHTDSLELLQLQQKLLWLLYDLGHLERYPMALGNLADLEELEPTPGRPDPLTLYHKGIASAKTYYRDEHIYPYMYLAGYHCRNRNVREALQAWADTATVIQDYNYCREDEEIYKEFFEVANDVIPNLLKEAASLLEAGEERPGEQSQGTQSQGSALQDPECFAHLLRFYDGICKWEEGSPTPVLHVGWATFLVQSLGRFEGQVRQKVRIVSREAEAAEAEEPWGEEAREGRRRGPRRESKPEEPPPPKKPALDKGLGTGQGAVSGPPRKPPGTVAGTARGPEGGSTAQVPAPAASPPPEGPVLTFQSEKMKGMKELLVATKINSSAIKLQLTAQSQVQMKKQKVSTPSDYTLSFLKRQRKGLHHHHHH
Quantity Measured: IC50 (nM)

Use the examples below as a reference point.
{"columns": ["Molecule", "IC50 [nM]"],
 "data": [
  ["CNC(=O)CCN(C)[C@H]1C[C@@H]([C@@H](C(C)C)N2CC3(CCN(c4ncnnc4Oc4ccc(F)cc4-c4cncnc4C4CC4)C3)C2)C1 (single isomer, unassigned)", 0.1],
  ["CC(=O)Nc1nccc(N[C@H]2C[C@@H]([C@@H](C(C)C)N3CC4(CCN(c5ncnnc5Oc5ccc(F)cc5-c5cncnc5C5CC5)C4)C3)C2)n1 (single isomer, unassigned)", 0.22]
]}

[I] COCC(=O)N[C@H]1C[C@@H]([C@@H](C(C)C)N2CC3(CCN(c4ncnnc4Oc4ccc(F)cc4-c4cncnc4C4CC4)C3)C2)C1 (single isomer, unassigned)
[II] Cc1nnc(-c2cc(N[C@H]3C[C@@H]([C@@H](C(C)C)N4CC5(CCN(c6ncnnc6Oc6ccc(F)cc6-c6cncnc6C6CC6)C5)C4)C3)ccn2)[nH]1 (single isomer, unassigned)
[III] CC(C)C([C@H]1C[C@H](N2CCC(F)(F)CC2)C1)N1CC2(CCN(c3ncnnc3Oc3ccc(F)cc3-c3cncnc3C3CC3)C2)C1 (some centres unmarked)
Query: Put these in order: smallest IC50 first, largest last. # output: labels, in the requested order
Reply: II, I, III
(II: 0.11 nM, I: 0.2 nM, III: 1.3 nM)
